Where do the numbers come from? From paper PMC11178787.

- System: Enterococcus faecium 2
- assay.protocol: microbe, parasite or virus in culture
- Set-up: CLSI broth microdilution MIC in MHB-II
- condition.info: Enterococcus faecium, 2, 18 h, read-out: MIC
The entries below are paired with their reported MIC.

>  <mol.smiles>
CCCCCCCCCCCCCCCC(=O)N[C@@H](CCCNC(=N)N)C(=O)Nc1ccc(CN[C@H](C(=O)O)[C@H](O[C@@H]2O[C@H](CN)[C@@H](O)[C@H]2O)[C@H]2O[C@@H](n3ccc(=O)[nH]c3=O)[C@H](O)[C@@H]2O)cc1

>  <qualifier.symbol>
=

>  <MIC [µg/mL]>
0.5

$$$$
>  <mol.smiles>
CN[C@H](CC(C)C)C(=O)N[C@H]1C(=O)N[C@@H](CC(N)=O)C(=O)N[C@H]2C(=O)N[C@H]3C(=O)N[C@H](C(=O)N[C@H](C(=O)O)c4cc(O)cc(O)c4-c4cc3ccc4O)[C@H](O)c3ccc(c(Cl)c3)Oc3cc2cc(c3O[C@@H]2O[C@H](CO)[C@@H](O)[C@H](O)[C@H]2O[C@H]2C[C@](C)(N)[C@H](O)[C@H](C)O2)Oc2ccc(cc2Cl)[C@H]1O

>  <qualifier.symbol>
=

>  <MIC [µg/mL]>
1

$$$$
>  <mol.smiles>
CCCCCCCCCCCCCCCC(=O)N[C@@H](CCCCN)C(=O)NCc1cccc(CN[C@H](C(=O)O)[C@H](O[C@@H]2O[C@H](CN)[C@@H](O)[C@H]2O)[C@H]2O[C@@H](n3ccc(=O)[nH]c3=O)[C@H](O)[C@@H]2O)c1

>  <qualifier.symbol>
=

>  <MIC [µg/mL]>
1

$$$$
>  <mol.smiles>
CC1(C)S[C@@H]2[C@H](NC(=O)[C@H](N)c3ccccc3)C(=O)N2[C@H]1C(=O)O

>  <qualifier.symbol>
=

>  <MIC [µg/mL]>
128

$$$$
>  <mol.smiles>
CCCCCCCCCCCCCCCC(=O)N[C@@H](CCCNC(=N)N)C(=O)NCc1cccc(CN[C@H](C(=O)O)[C@H](O[C@@H]2O[C@H](CN)[C@@H](O)[C@H]2O)[C@H]2O[C@@H](n3ccc(=O)[nH]c3=O)[C@H](O)[C@@H]2O)c1

>  <qualifier.symbol>
=

>  <MIC [µg/mL]>
2

$$$$
>  <mol.smiles>
CCCCCCCCCCCCCCCC(=O)N[C@@H](CCCCN)C(=O)Nc1ccc(CN[C@H](C(=O)O)[C@H](O[C@@H]2O[C@H](CN)[C@@H](O)[C@H]2O)[C@H]2O[C@@H](n3ccc(=O)[nH]c3=O)[C@H](O)[C@@H]2O)cc1

>  <qualifier.symbol>
=

>  <MIC [µg/mL]>
0.5

$$$$
>  <mol.smiles>
CCCCCCCCCCCCCCCC(=O)N[C@@H](CCCNC(=N)N)C(=O)NCc1ccc(CN[C@H](C(=O)O)[C@H](O[C@@H]2O[C@H](CN)[C@@H](O)[C@H]2O)[C@H]2O[C@@H](n3ccc(=O)[nH]c3=O)[C@H](O)[C@@H]2O)cc1

>  <qualifier.symbol>
=

>  <MIC [µg/mL]>
1

$$$$
>  <mol.smiles>
CCCCCCCCCCCCCCCC(=O)N[C@@H](CCCCN)C(=O)Nc1cccc(CN[C@H](C(=O)O)[C@H](O[C@@H]2O[C@H](CN)[C@@H](O)[C@H]2O)[C@H]2O[C@@H](n3ccc(=O)[nH]c3=O)[C@H](O)[C@@H]2O)c1

>  <qualifier.symbol>
=

>  <MIC [µg/mL]>
1

$$$$
>  <mol.smiles>
CCCCCCCCCCCCCCCC(=O)N[C@@H](CCCNC(=N)N)C(=O)Nc1cccc(CN[C@H](C(=O)O)[C@H](O[C@@H]2O[C@H](CN)[C@@H](O)[C@H]2O)[C@H]2O[C@@H](n3ccc(=O)[nH]c3=O)[C@H](O)[C@@H]2O)c1

>  <qualifier.symbol>
=

>  <MIC [µg/mL]>
2

$$$$
>  <mol.smiles>
C[C@H]1COc2c(N3CCN(C)CC3)c(F)cc3c(=O)c(C(=O)O)cn1c23

>  <qualifier.symbol>
>

>  <MIC [µg/mL]>
32

$$$$
